tested on: TO-3-N3 (biotin conjugate); assay: pull-down binding Z-score (relative to library population); higher = stronger binding; details: RNA library: Library-2
pull-down binding Z-score listing for selected sequences.

recordSequence	pull-down binding Z-score
CCAGGCCCCACGGAGAACCAGGGCACCUGG [hsa-mir-8058]	-0.288
CAACUGAAAUCUAUCAGGCCGGUAGCACACCUUGUAAUGGUGUUGAAGGUUUUAAUUG [SHAPE_invivo_SARS-CoV-2_Motif_433]	-0.552
AGAGUCCUGUUGUUGUAAGAUAGUGUCU [hsa-mir-550a-3]	-0.56
CGCCCGACUUCGGGG [hsa-mir-4767]	-0.34
UUCAGUUUCCUUACUGGUAA [hsa-mir-302e]	-0.394
